System: DLD-1
Test: NCI tumour cell line growth inhibition, 48 h
Counter-ions that a name gives are not always drawn. Active and inactive are the calls of the source. No stated cut-off is given here; in the data, active = GI50 up to about 1.1 µM and inactive = higher.
Respond using exactly one of the listed classes: active, inactive

Examples from the recorded data:
O=C1C(CO)=C[C@H](O)[C@H]2O[C@@H]12    inactive
NCCSSCCN [CYSTAMINE HYDROCHLORIDE]    inactive
O=C1CCC2(O)c3ccccc3C2Cc2ccccc21 (stereo not drawn)    inactive
C1=CC2SSSC2C1 (stereo not drawn)    inactive
C[C@@H]1C[C@]2(C[C@@H](C)[C@H]3C(C[C@@]4(C)CCC[C@@H]5C6=C[C@H](CCC34C)OC6=CC(=O)OC5(C)C)O2)OC1=O (stereo partly drawn)    inactive

Prompt: Check the results log: what was the call for O=c1/c(=C/c2ccc3c(c2)OCO3)sc2nnc(-c3ccco3)n12 ?
Response: inactive

Prompt: Please state the recorded outcome for this molecule: COC(=O)C1CCC(C)CC1=O (stereo not drawn)
Response: inactive

Prompt: Kindly provide the recorded test outcome for the following molecule: CCc1ccc(NCc2cc(OC)c(OC)c(OC)c2)cc1
Response: active

Prompt: Dear all, I need the recorded test outcome for Clc1ccc2c(c1)C1C(CO2)C(c2ccccc2)=NN1c1ccccc1 (stereo not drawn) , thank you.
Response: inactive

Prompt: Hey, what did the test say about COc1cc2c3c(c1OC)-c1ccccc1C(C(OC(C)=O)c1ccccc1)C3N(C)CC2 (stereo not drawn) ?
Response: inactive
